Molecular target: TYK2 (Homo sapiens (Human))
Sequence (P29597 whole entry, species assumed): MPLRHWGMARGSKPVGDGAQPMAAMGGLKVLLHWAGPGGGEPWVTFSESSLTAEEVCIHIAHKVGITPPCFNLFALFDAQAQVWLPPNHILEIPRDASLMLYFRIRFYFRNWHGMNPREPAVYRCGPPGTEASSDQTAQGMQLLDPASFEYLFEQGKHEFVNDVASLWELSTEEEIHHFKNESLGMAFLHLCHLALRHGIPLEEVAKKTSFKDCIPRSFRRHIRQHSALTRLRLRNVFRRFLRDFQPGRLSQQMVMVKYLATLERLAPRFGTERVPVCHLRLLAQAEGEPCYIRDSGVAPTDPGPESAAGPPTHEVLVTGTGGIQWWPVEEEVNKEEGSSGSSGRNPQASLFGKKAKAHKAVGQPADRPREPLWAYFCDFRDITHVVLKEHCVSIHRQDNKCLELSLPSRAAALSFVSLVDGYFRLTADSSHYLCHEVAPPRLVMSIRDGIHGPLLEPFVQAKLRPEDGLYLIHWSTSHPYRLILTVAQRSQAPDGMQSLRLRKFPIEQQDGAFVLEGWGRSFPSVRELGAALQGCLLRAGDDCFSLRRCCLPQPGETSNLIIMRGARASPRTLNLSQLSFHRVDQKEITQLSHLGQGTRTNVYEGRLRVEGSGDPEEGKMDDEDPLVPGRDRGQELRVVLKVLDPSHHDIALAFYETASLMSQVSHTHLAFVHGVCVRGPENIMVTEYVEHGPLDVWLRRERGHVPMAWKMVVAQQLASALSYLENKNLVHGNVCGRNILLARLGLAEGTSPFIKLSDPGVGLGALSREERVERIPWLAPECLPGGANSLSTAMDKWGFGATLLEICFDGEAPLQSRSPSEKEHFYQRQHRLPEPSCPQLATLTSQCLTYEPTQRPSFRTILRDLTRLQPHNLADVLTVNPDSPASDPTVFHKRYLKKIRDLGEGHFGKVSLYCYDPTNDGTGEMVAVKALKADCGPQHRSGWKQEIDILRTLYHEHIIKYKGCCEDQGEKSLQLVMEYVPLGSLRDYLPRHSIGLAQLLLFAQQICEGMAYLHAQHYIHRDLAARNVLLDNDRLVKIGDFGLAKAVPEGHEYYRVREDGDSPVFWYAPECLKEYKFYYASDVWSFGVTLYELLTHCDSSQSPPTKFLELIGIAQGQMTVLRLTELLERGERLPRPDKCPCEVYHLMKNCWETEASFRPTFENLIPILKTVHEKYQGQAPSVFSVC
Test: TYK2 inhibition
Format: biochemical
Details: Table 1
measured-metric: log10 of IC50 (log10 of the value in nM)
Please note: log10 values; quantity IC50; unit nM.

compound	measured-metric	observed
Cc1cncc2ccc(NC(=O)[C@@H]3C[C@H]3c3ccc(S(=O)(=O)Nc4cnccn4)cc3)cc12 [Compound 10]	log10 of IC50	1.53
Cc1cncc2ccc(NC(=O)[C@@H]3C[C@H]3c3ccc(S(=O)(=O)Nc4cccnc4)cc3)cc12 [Compound 27]	log10 of IC50	1.99

query: Dear colleague, I am looking for the recorded log10 of IC50 of the following compound: O=C(Nc1ccc2cncc(Cl)c2c1)[C@@H]1CC1c1ccc(S(=O)(=O)Nc2cccnc2)cc1 (some centres unmarked) [Compound 28]
result: 2.32

query: Dear colleague, I am looking for the recorded log10 of IC50 of the following compound: O=C(Nc1ccc2cncc(Cl)c2c1)[C@@H]1CC1c1ccc(S(=O)(=O)Nc2ccc(F)cn2)cc1 (mixture of isomers) [Compound 16b]
result: 1.08

query: Dear colleague, I am looking for the recorded log10 of IC50 of the following compound: O=C(Nc1ccc2cncc(Cl)c2c1)[C@@H]1CC1c1ccc(S(=O)(=O)Nc2ccc(F)cn2)cc1 (mixture of isomers) [Compound 16a]
result: 0.85

---

Molecular target: ROCK1 enzyme (Homo sapiens (Human), UniProt Q13464)
Sequence (Q13464 whole entry, species assumed): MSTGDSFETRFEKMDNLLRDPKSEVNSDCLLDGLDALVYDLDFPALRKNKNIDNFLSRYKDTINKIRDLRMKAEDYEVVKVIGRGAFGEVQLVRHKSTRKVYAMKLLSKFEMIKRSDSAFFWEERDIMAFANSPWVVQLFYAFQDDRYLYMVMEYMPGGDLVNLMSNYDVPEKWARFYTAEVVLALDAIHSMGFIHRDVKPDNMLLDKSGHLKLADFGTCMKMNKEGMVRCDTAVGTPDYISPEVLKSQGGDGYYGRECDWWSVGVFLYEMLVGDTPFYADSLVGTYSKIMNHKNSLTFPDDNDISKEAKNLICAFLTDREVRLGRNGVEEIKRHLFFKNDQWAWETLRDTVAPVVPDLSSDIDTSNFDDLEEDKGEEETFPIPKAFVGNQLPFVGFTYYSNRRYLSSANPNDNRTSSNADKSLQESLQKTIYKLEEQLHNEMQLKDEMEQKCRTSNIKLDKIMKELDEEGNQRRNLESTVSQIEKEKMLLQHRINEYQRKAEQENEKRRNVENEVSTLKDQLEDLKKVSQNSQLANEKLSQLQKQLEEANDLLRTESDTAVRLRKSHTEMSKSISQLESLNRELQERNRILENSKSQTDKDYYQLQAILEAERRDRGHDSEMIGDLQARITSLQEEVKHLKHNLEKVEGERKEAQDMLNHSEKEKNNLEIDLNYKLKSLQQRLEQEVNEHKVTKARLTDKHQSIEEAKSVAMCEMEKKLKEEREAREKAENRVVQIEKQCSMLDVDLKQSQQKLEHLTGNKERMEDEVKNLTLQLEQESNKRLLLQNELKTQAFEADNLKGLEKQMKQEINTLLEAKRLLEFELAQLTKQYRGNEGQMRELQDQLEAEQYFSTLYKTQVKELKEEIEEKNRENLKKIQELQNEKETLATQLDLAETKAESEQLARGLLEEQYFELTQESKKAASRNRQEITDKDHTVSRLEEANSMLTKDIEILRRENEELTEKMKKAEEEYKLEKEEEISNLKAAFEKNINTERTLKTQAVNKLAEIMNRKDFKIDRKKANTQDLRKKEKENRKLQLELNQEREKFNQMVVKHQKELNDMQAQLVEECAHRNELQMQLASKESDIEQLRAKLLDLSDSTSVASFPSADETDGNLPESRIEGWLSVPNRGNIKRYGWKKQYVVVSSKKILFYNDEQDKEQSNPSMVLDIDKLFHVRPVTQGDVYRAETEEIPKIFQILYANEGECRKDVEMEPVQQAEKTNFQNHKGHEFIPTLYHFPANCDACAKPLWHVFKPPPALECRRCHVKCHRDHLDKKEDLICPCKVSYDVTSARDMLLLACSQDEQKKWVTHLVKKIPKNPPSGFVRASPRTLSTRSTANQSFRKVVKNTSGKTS
Assay: ROCK kinase inhibition assay (ROCK1)
Type: biochemical
Settings: Table 1
molecules and their reported IC50
// unit must come after the numeric part

Known IC50 results, listed for orientation:
molecule	observed
N#Cc1cncc2ccc(NC(=O)[C@@H]3CC3c3ccc(S(=O)(=O)Nc4ccccn4)cc3)cc12 (some centres unmarked)	30 nM
Cc1cncc2ccc(NC(=O)[C@@H]3C[C@H]3c3ccc(S(=O)(=O)Nc4ncc(C5CCNCC5)cn4)cc3)cc12	16 nM
Cc1cncc2ccc(NC(=O)[C@@H]3C[C@H]3c3ccc(S(=O)(=O)NC4CCNC4)cc3)cc12 (some centres unmarked)	21 nM
O=C(Nc1ccc2cncc(Cl)c2c1)[C@@H]1C[C@H]1c1ccc(S(=O)(=O)Nc2ccc(F)cn2)cc1	156 nM
Cc1cncc2ccc(NC(=O)[C@@H]3CC3c3ccc(S(=O)(=O)Nc4ncc(F)cn4)cc3)cc12 (some centres unmarked)	121 nM

query: Dear colleague, I am looking for the recorded IC50 of the following molecule: O=C(Nc1ccc2cncc(C(F)(F)F)c2c1)[C@@H]1C[C@H]1c1ccc(S(=O)(=O)Nc2ccccn2)cc1
result: 122 nM

query: Dear colleague, I am looking for the recorded IC50 of the following molecule: Cc1cncc2ccc(NC(=O)[C@@H]3CC3c3ccc(S(=O)(=O)Nc4cnccn4)cc3)cc12 (some centres unmarked)
result: 220 nM

---

Target: IKKβ (Homo sapiens (Human))
Sequence (O14920 whole entry, species assumed): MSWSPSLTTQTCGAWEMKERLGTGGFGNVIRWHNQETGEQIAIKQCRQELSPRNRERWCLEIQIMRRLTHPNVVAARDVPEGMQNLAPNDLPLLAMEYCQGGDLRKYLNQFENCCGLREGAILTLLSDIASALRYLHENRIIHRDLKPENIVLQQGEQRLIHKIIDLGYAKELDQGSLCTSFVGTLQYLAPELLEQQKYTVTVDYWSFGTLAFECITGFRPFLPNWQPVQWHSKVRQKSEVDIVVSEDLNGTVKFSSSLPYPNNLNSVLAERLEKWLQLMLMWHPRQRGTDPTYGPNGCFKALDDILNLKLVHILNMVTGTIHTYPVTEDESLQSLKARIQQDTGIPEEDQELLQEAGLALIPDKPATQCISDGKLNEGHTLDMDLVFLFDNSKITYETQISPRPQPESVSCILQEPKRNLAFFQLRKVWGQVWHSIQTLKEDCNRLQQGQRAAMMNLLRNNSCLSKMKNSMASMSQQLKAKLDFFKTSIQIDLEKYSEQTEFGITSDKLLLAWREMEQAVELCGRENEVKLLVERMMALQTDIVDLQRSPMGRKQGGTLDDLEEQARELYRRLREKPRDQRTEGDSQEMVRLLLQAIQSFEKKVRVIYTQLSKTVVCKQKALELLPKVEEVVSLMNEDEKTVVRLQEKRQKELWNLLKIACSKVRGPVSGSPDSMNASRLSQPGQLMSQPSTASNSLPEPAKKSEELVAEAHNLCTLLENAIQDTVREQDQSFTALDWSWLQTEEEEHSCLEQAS
Experiment: IKKβ inhibition
Assay type: biochemical
Conditions: Table 1
compounds and their reported log10 of IC50
Please note: log10 values; quantity IC50; unit nM.

Known log10 of IC50 results, listed for orientation:
compound	target-entity	log10 of IC50
O=C(Nc1ccc2cncc(Cl)c2c1)[C@@H]1C[C@H]1c1ccc(S(=O)(=O)Nc2ccc(F)cn2)cc1 [Compound 15]	IKKβ (Homo sapiens (Human))	1.94
Cc1cncc2ccc(NC(=O)[C@@H]3C[C@H]3c3ccc(S(=O)(=O)Nc4cncc(C5=CCNCC5)n4)cc3)cc12 [Compound 11]	IKKβ (Homo sapiens (Human))	2.88
O=C(Nc1ccc2cncc(Cl)c2c1)[C@@H]1C[C@H]1c1ccc(S(=O)(=O)Nc2ncccn2)cc1 [Compound 6]	IKKβ (Homo sapiens (Human))	0.61

query: Dear colleague, I am looking for the recorded log10 of IC50 of the following compound: O=C(Nc1ccc2cncc(C(F)(F)F)c2c1)[C@@H]1CC1c1ccc(S(=O)(=O)Nc2ncccn2)cc1 (some centres unmarked) [Compound 9]
result: 1.15

query: Dear colleague, I am looking for the recorded log10 of IC50 of the following compound: Cc1cncc2ccc(NC(=O)[C@@H]3CC3c3ccc(S(=O)(=O)Nc4ncc(F)cn4)cc3)cc12 (some centres unmarked) [Compound 8]
result: 0.86

query: Dear colleague, I am looking for the recorded log10 of IC50 of the following compound: O=C(Nc1ccc2cnccc2c1)[C@@H]1CC1c1ccc(S(=O)(=O)Nc2ccccn2)c(F)c1 (some centres unmarked) [Compound 18]
result: 1.24

query: Dear colleague, I am looking for the recorded log10 of IC50 of the following compound: CCc1cncc2ccc(NC(=O)[C@@H]3C[C@H]3c3ccc(S(=O)(=O)Nc4ncccn4)cc3)cc12 [Compound 7]
result: 0.56

query: Dear colleague, I am looking for the recorded log10 of IC50 of the following compound: O=C(Nc1ccc2cncc(Cl)c2c1)[C@@H]1CC1c1ccc(S(=O)(=O)Nc2ccc(F)cn2)cc1 (mixture of isomers) [Compound 16b]
result: 1.85

query: Dear colleague, I am looking for the recorded log10 of IC50 of the following compound: Cc1cncc2ccc(NC(=O)[C@@H]3CC3c3ccc(S(=O)(=O)Nc4cccnc4)cc3)cc12 (some centres unmarked) [Compound 27]
result: 2.20

query: Dear colleague, I am looking for the recorded log10 of IC50 of the following compound: O=C(Nc1ccc2cncc(Cl)c2c1)[C@@H]1CC1c1ccc(S(=O)(=O)Nc2ccc(F)cn2)cc1 (mixture of isomers) [Compound 16a]
result: 1.94

query: Dear colleague, I am looking for the recorded log10 of IC50 of the following compound: N#Cc1cncc2ccc(NC(=O)[C@@H]3CC3c3ccc(S(=O)(=O)Nc4ccccn4)cc3)cc12 (some centres unmarked) [Compound 20]
result: 0.84

query: Dear colleague, I am looking for the recorded log10 of IC50 of the following compound: Cc1cncc2ccc(NC(=O)[C@@H]3CC3c3ccc(S(=O)(=O)Nc4cnccn4)cc3)cc12 (some centres unmarked) [Compound 10]
result: 2.02

query: Dear colleague, I am looking for the recorded log10 of IC50 of the following compound: O=C(Nc1ccc2cncc(C(F)(F)F)c2c1)[C@@H]1C[C@H]1c1ccc(S(=O)(=O)Nc2ccccn2)cc1 [Compound 14]
result: 1.20
